Target: Vitamin D3 receptor (Homo sapiens) (UniProt P11473)
Sequence (P11473 whole entry): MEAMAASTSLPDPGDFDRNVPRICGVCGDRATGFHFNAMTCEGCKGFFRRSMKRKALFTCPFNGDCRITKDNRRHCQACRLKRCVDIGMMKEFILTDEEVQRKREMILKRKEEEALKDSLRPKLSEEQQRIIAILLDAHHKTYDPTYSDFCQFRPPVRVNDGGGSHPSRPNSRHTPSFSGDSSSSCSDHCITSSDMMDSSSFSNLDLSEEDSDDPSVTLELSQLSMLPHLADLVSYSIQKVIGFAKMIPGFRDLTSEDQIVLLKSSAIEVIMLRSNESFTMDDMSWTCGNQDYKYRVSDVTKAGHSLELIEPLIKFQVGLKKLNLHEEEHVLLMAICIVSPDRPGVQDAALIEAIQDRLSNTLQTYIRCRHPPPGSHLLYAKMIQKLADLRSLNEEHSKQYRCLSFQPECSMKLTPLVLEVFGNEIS
Settings: HEK293, 10 to 1000 nM
Description: Inhibition of 1,25(OH)2D3-induced transactivation of human VDR expressed in HEK293 cells cotransfected with mouse VDRE, Tk-Sppx3-LUC reporter plasmid measured at 10 to 1000 nM after 24 hrs by luciferase reporter assay
Calls of active or inactive are those of the source. No cut-off for these calls is given here.
readout.name: inhibition

INSERT INTO results (structure_as_smiles, experimental_value) VALUES
  ('C=C1[C@H](O)CC(=C/C=C2\CCC[C@]3(C)[C@@H]([C@H](C)CC#C[C@H](O)CC45CC6CC(CC(C6)C4)C5)CC[C@@H]23)C[C@H]1O', 'Active'),
  ('C=C1[C@H](O)CC(=C/C=C2\CCC[C@]3(C)[C@@H]([C@H](C)CC#C[C@H](O)C45CC6CC(CC(C6)C4)C5)CC[C@@H]23)C[C@H]1O', 'Active'),
  ('C=C1[C@H](O)CC(=C/C=C2\CCC[C@]3(C)[C@@H]([C@H](C)CC#C[C@@H](O)CC45CC6CC(CC(C6)C4)C5)CC[C@@H]23)C[C@H]1O', 'Active');

* * *

Tested on: U-937
Experiment: Induction of cathelicidine antimicrobial peptide mRNA expression in human U937 cells at 100 nM after 24 hrs by real-time PCR relative to 1-alpha,25-dihydroxyvitamin D3
Type: functional
readout.name: Activity (%)
Express the result in % but write the number alone.

INSERT INTO assay_data (structure_as_smiles, system_tested, readout_name, experimental_value) VALUES
  ('C=C1[C@H](O)CC(=C/C=C2\CCC[C@]3(C)[C@@H]([C@H](C)CC#C[C@H](O)CC45CC6CC(CC(C6)C4)C5)CC[C@@H]23)C[C@H]1O', 'U-937', 'Activity', 75),
  ('C=C1[C@H](O)CC(=C/C=C2\CCC[C@]3(C)[C@@H]([C@H](C)CC#C[C@@H](O)C45CC6CC(CC(C6)C4)C5)CC[C@@H]23)C[C@H]1O', 'U-937', 'Activity', 125),
  ('C=C1[C@H](O)CC(=C/C=C2\CCC[C@]3(C)[C@@H]([C@H](C)CC#C[C@@H](O)CC45CC6CC(CC(C6)C4)C5)CC[C@@H]23)C[C@H]1O', 'U-937', 'Activity', 65);

Pending molecule:
q: Give reported Activity value for "C=C1[C@H](O)CC(=C/C=C2\CCC[C@]3(C)[C@@H]([C@H](C)CC#C[C@H](O)C45CC6CC(CC(C6)C4)C5)CC[C@@H]23)C[C@H]1O"
a: 30

* * *

Target: Vitamin D3 receptor (Homo sapiens, UniProt P11473)
Assay: Activation of human VDR expressed in HEK293 cells cotransfected CMX-GAL4-SRC1 and 4-tk-LUC assessed as SRC1 interaction with AF2 surface of VDR by mammalian two-hybrid assay
Type: cell-based
readout.name: EC50 (µM)

INSERT INTO measurements (structure_as_smiles, system_tested, experimental_value) VALUES
  ('C=C1[C@H](O)CC(=C/C=C2\CCC[C@]3(C)[C@@H]([C@H](C)CC#C[C@@H](O)CC45CC6CC(CC(C6)C4)C5)CC[C@@H]23)C[C@H]1O', 'Vitamin D3 receptor (Homo sapiens, UniProt P11473)', 0.0135);

[I] C=C1[C@H](O)CC(=C/C=C2\CCC[C@]3(C)[C@@H]([C@H](C)CC#C[C@H](O)C45CC6CC(CC(C6)C4)C5)CC[C@@H]23)C[C@H]1O
[II] C=C1[C@H](O)CC(=C/C=C2\CCC[C@]3(C)[C@@H]([C@H](C)CC#C[C@H](O)CC45CC6CC(CC(C6)C4)C5)CC[C@@H]23)C[C@H]1O
[III] C=C1[C@H](O)CC(=C/C=C2\CCC[C@]3(C)[C@@H]([C@H](C)CC#C[C@@H](O)C45CC6CC(CC(C6)C4)C5)CC[C@@H]23)C[C@H]1O
q: Sequence the entries by EC50, beginning with the highest number. List the labels according to the requested ordering.
a: I, II, III

* * *

Test system: HaCaT
Test: Induction of cathelicidine antimicrobial peptide mRNA expression in human HaCaT cells at 100 nM after 24 hrs by real-time PCR relative to 1-alpha,25-dihydroxyvitamin D3
Assay type: functional
Quick reference for Activity among some compounds
Express the result in % but write the number alone.

INSERT INTO measurements (structure_as_smiles, system_tested, readout_name, experimental_value) VALUES
  ('C=C1[C@H](O)CC(=C/C=C2\CCC[C@]3(C)[C@@H]([C@H](C)CC#C[C@@H](O)C45CC6CC(CC(C6)C4)C5)CC[C@@H]23)C[C@H]1O', 'HaCaT', 'Activity', 60),
  ('C=C1[C@H](O)CC(=C/C=C2\CCC[C@]3(C)[C@@H]([C@H](C)CC#C[C@@H](O)CC45CC6CC(CC(C6)C4)C5)CC[C@@H]23)C[C@H]1O', 'HaCaT', 'Activity', 15),
  ('C=C1[C@H](O)CC(=C/C=C2\CCC[C@]3(C)[C@@H]([C@H](C)CC#C[C@H](O)C45CC6CC(CC(C6)C4)C5)CC[C@@H]23)C[C@H]1O', 'HaCaT', 'Activity', 15);

Pending compound:
q: Give reported Activity value for "C=C1[C@H](O)CC(=C/C=C2\CCC[C@]3(C)[C@@H]([C@H](C)CC#C[C@H](O)CC45CC6CC(CC(C6)C4)C5)CC[C@@H]23)C[C@H]1O"
a: 20

* * *

Biological target: UniProt:P11473
Assay: Activation of human VDR expressed in HEK293 cells cotransfected CMX-GAL4-RXRalpha and 4-tk-LUC assessed as heterodimerization with RXRalpha by mammalian two-hybrid assay
Type: cell-based
readout.name: EC50 (nM)

INSERT INTO results (structure_as_smiles, experimental_value) VALUES
  ('C=C1[C@H](O)CC(=C/C=C2\CCC[C@]3(C)[C@@H]([C@H](C)CC#C[C@@H](O)C45CC6CC(CC(C6)C4)C5)CC[C@@H]23)C[C@H]1O', 0.6);

[P] C=C1[C@H](O)CC(=C/C=C2\CCC[C@]3(C)[C@@H]([C@H](C)CC#C[C@H](O)C45CC6CC(CC(C6)C4)C5)CC[C@@H]23)C[C@H]1O
[Q] C=C1[C@H](O)CC(=C/C=C2\CCC[C@]3(C)[C@@H]([C@H](C)CC#C[C@H](O)CC45CC6CC(CC(C6)C4)C5)CC[C@@H]23)C[C@H]1O
[R] C=C1[C@H](O)CC(=C/C=C2\CCC[C@]3(C)[C@@H]([C@H](C)CC#C[C@@H](O)CC45CC6CC(CC(C6)C4)C5)CC[C@@H]23)C[C@H]1O
q: Which order do these items take when sorted by rising EC50? List them. List the labels according to the requested ordering.
a: R, Q, P

* * *

Target: Vitamin D3 receptor (Homo sapiens, UniProt P11473)
Experiment: Activation of human VDR expressed in HEK293 cells cotransfected CMX-GAL4-NCoR2 and 4-tk-LUC assessed as inhibition of NCoR2 binding to VDR by mammalian two-hybrid assay
Assay type: cell-based
readout.name: EC50 (nM)

INSERT INTO assay_data (structure_as_smiles, experimental_value) VALUES
  ('C=C1[C@H](O)CC(=C/C=C2\CCC[C@]3(C)[C@@H]([C@H](C)CC#C[C@@H](O)C45CC6CC(CC(C6)C4)C5)CC[C@@H]23)C[C@H]1O', 0.5),
  ('C=C1[C@H](O)CC(=C/C=C2\CCC[C@]3(C)[C@@H]([C@H](C)CC#C[C@H](O)CC45CC6CC(CC(C6)C4)C5)CC[C@@H]23)C[C@H]1O', 2.4);

[1] C=C1[C@H](O)CC(=C/C=C2\CCC[C@]3(C)[C@@H]([C@H](C)CC#C[C@@H](O)CC45CC6CC(CC(C6)C4)C5)CC[C@@H]23)C[C@H]1O
[2] C=C1[C@H](O)CC(=C/C=C2\CCC[C@]3(C)[C@@H]([C@H](C)CC#C[C@H](O)C45CC6CC(CC(C6)C4)C5)CC[C@@H]23)C[C@H]1O
q: Which has the smaller recorded EC50, 1 or 2 ? Reply briefly: the label of your chosen item.
a: 1

* * *

Biological target: Vitamin D3 receptor (Homo sapiens)
Assay: Activation of human VDR expressed in HEK293 cells cotransfected CMX-GAL4-N-CoR and 4-tk-LUC assessed as inhibition of N-CoR binding to VDR by mammalian two-hybrid assay
Type: cell-based
pEC50: −log10 of the molar value.
readout.name: pEC50

[I] C=C1[C@H](O)CC(=C/C=C2\CCC[C@]3(C)[C@@H]([C@H](C)CC#C[C@@H](O)C45CC6CC(CC(C6)C4)C5)CC[C@@H]23)C[C@H]1O
[II] C=C1[C@H](O)CC(=C/C=C2\CCC[C@]3(C)[C@@H]([C@H](C)CC#C[C@H](O)CC45CC6CC(CC(C6)C4)C5)CC[C@@H]23)C[C@H]1O
q: In the pair I and II , the larger recorded pEC50 belongs to which? Reply briefly: the label of your chosen item.
a: I
(I: 9.40, II: 8.43)

[A] C=C1[C@H](O)CC(=C/C=C2\CCC[C@]3(C)[C@@H]([C@H](C)CC#C[C@H](O)C45CC6CC(CC(C6)C4)C5)CC[C@@H]23)C[C@H]1O
[B] C=C1[C@H](O)CC(=C/C=C2\CCC[C@]3(C)[C@@H]([C@H](C)CC#C[C@@H](O)CC45CC6CC(CC(C6)C4)C5)CC[C@@H]23)C[C@H]1O
q: In the pair A and B , the larger recorded pEC50 belongs to which? Reply briefly: the label of your chosen item.
a: B
(B: 8.74, A: 8.40)

These entries and their values trace back to ChEMBL document CHEMBL3259615.
